# assayName: Oil evaluation: solubility behavior of oleoyl-estrone, 60 mg/g in single oils
# Type: physicochemical
# assaySetup: Labrafil M 125CS (oil), oil or lipid; in Labrafil M 125CS at RT (about 22° C.), after 96 hr, more oil added

molecule | solubility at 96 h
CCCCCCCC/C=C\CCCCCCCC(=O)Oc1ccc2c(c1)CC[C@@H]1[C@@H]2CC[C@]2(C)C(=O)CC[C@@H]12 [oleoyl-estrone] | ≤ 3000 µg/mL

====

# assayName: Oil evaluation: solubility behavior of oleoyl-estrone, 60 mg/g in single oils
# Type: physicochemical
# assaySetup: Labrafil 1944 CS (oil), oil or lipid; in Labrafil 1944 CS at RT (about 22° C.), after 96 hr, more oil added

inputSmiles | solubility at 96 h
CCCCCCCC/C=C\CCCCCCCC(=O)Oc1ccc2c(c1)CC[C@@H]1[C@@H]2CC[C@]2(C)C(=O)CC[C@@H]12 | ~5000 µg/mL

Measured values drawn from patent US20080261936A1 for this set.
